Sourced from ChEMBL document CHEMBL5291721

The following molecules are listed with their measured AC50 values.
Molecular target: Vasopressin V1a receptor (Homo sapiens, UniProt P37288); also: assay procedure not described here
Sequence (P37288 whole entry): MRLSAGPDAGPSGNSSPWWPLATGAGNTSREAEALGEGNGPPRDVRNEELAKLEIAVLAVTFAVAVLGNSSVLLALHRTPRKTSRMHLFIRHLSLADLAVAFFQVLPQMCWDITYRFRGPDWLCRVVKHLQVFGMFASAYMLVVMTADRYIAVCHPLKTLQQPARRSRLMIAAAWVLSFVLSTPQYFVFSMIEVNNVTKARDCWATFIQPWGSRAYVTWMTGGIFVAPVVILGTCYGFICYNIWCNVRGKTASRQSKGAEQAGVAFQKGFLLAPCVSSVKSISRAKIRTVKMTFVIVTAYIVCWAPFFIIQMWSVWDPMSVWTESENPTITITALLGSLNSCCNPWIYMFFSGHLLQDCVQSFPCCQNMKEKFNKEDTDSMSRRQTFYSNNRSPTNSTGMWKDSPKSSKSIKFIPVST
Recorded Metric: AC50

Molecule: C[C@]12C=CC(=O)C=C1CC[C@@H]1[C@@H]2CC[C@]2(C)OC(=O)CC[C@@H]12
Recorded Metric: AC50
Observed Value: > 10 µM
--
Molecule: CC[C@@H](CO)NC(=O)[C@@H]1C=C2c3cccc4c3c(cn4C)C[C@H]2N(C)C1 [METHYSERGIDE]
Recorded Metric: AC50
Observed Value: > 30 µM
--
Molecule: CC1=C(C(=O)OC(C)C)C(c2cccc([N+](=O)[O-])c2)C(C(=O)OC2CN(C(c3ccccc3)c3ccccc3)C2)=C(N)N1 (centres undefined)
Recorded Metric: AC50
Observed Value: > 30 µM
--
Molecule: CN(CCOc1ccc(CC2SC(=O)NC2=O)cc1)c1ccccn1 (centres undefined)
Recorded Metric: AC50
Observed Value: > 30 µM
--
Molecule: O=C(CCCN1CCC(O)(c2ccc(Br)cc2)CC1)c1ccc(F)cc1
Recorded Metric: AC50
Observed Value: > 30 µM
--
Molecule: CC(Cc1cccc(C(F)(F)F)c1)NCCOC(=O)c1ccccc1 (centres undefined)
Recorded Metric: AC50
Observed Value: > 30 µM
--
Molecule: CCC[C@@H]1C[C@@H](C(=O)N[C@@H]([C@H]2O[C@H](SC)[C@H](O)[C@@H](O)[C@H]2O)[C@@H](C)O)N(C)C1
Recorded Metric: AC50
Observed Value: > 10 µM
--
Molecule: O=C(O)COCCN1CCN(C(c2ccccc2)c2ccc(Cl)cc2)CC1 (centres undefined)
Recorded Metric: AC50
Observed Value: > 10 µM
--
Molecule: CCCCOc1ccc(C(=O)CCN2CCCCC2)cc1
Recorded Metric: AC50
Observed Value: > 10 µM
